Data provenance: patent US5616615A

# ASSAY EXPLANATION: in vivo
# STATED CONDITIONS: rat, ip
MEASURED ENDPOINT: TD50 at 2 h (mg/kg)
Just the number please, in mg/kg, no unit attached.

Consider the compound COC(=O)C1C(=O)C=C(Nc2ccc(Br)cc2)CC1C (stereo not shown) [Compound 113] and give its recorded TD50 at 2 h.
270

====

# ASSAY EXPLANATION: in vivo
# STATED CONDITIONS: rat, po
Property: selectivity ratio; scope: individual molecules
Give the figure only, with no unit attached.

Sample answers from the record:
1. COC(=O)C1C(=O)C=C(NCc2ccc(F)cc2)CC1C (stereo not shown): 4.7
2. COC(=O)C1C(=O)C=C(Nc2ccc(Cl)cc2)CC1C (stereo not shown): 65.6
3. COC(=O)C1C(=O)C=C(NCc2ccccc2)CC1C (stereo not shown): 18.7

Query molecule follows.
Return selectivity ratio (reported value) for this molecule: CC1(C)CC(=O)C=C(Nc2ccccc2)C1
8.3

====

# ASSAY EXPLANATION: in vivo
# STATED CONDITIONS: rat, ip
MEASURED ENDPOINT: selectivity ratio

1. COC(=O)C1C(=O)C=C(Nc2ccc(C(F)(F)F)cc2)CC1C (centres unmarked) [Compound 115]: > 21.7

Note down selectivity ratio recorded for COC(=O)C1C(=O)C=C(Nc2ccc(Br)cc2)CC1C (centres unmarked) [Compound 113]
67.4

====

# System: Maximal electroshock seizures
# ASSAY EXPLANATION: Phase VI oral MES test, rats
# Format: in vivo
# STATED CONDITIONS: Rattus norvegicus; oral, 50 mg/kg, 2.00 h; read-out: MES, animals protected/tested (converted)
MEASURED ENDPOINT: responders at 50 mg/kg
Just so you know, I need the unit written after the number.

1. COC(=O)C1C(=O)C=C(NCCc2ccccc2)CC1C (stereo not drawn) [Compound 109]: 25%
2. O=C1C=C(Nc2ccc(C(F)(F)F)cc2)CCC1 [Compound 151]: 50%
3. CCOC(=O)C1C(=O)C=C(Nc2ccc([N+](=O)[O-])cc2)CC1C (stereo not drawn) [Compound 127]: 50%

Annotate the molecule COC(=O)C1C(=O)C=C(NCc2ccccc2)CC1C (stereo not drawn) [Compound 12] with its measured responders at 50 mg/kg.
50%

Given the molecule COC(=O)C1C(=O)C=C(Nc2ccc(F)cc2)CC1C (stereo not drawn) [Compound 112] , write its reported responders at 50 mg/kg.
100%

Item CC1(C)CC(=O)C=C(Nc2ccc([N+](=O)[O-])cc2)C1 [Compound 138] : provide responders at 50 mg/kg
50%

====

Reported TPE (time of peak effect), toxicity values follow for various compounds
# ASSAY EXPLANATION: in vivo
# STATED CONDITIONS: mouse, in vivo, ip
Lab note: jot down the number only; don't add units.

These recorded examples may help you get a feel for the data.
1. O=C1NC(=O)C(c2ccccc2)(c2ccccc2)N1 [phenytoin, reference compound]: 2
2. NC(=O)N1c2ccccc2C=Cc2ccccc21 [carbamazepine, reference compound]: 0.5
3. COC(=O)C1C(=O)C=C(NCc2ccccc2)CC1C (centres unmarked): 1
4. CC1(C)CC(=O)C=C(Nc2ccccc2)C1: 0.5

As a next step, examine the compound that follows.
Consider the compound COC(=O)C1C(=O)C=C(Nc2ccc(Cl)cc2)CC1C (centres unmarked) and give its recorded TPE (time of peak effect), toxicity.
2
